Target: T1, GDF15-HIS (ACROBiosystems, CAT #: GD5-H5149) (human, UniProt Q99988 197-308)
T1 construct: Bought protein; also called GDF15 (ACROBiosystems, GD5-H5149); human GDF15; not shown: His tag
T1 sequence (looked up): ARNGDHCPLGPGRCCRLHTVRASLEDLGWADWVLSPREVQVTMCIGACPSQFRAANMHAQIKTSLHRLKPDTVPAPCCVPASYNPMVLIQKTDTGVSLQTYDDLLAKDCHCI
Assay: BLI (ForteBio Octet), antibody immobilised, GDF15 200-6.25 nM
pKd: −log10 of the molar value.
Form field: pKd (one value per entry).
REPORTED METRIC: pKd

BINDER	RESULT VALUE
A6 (murine anti-53D10) (antibody, V domains shown, Purified murine hybridoma antibody) VH: QVTLKESGPGIVQPSQPFRLTCTFSGFSLSTSGIGITWIRQPSGKGLEWLATIWWDDDNRYNPSLKSRLTVSKDTSNNQAFLNIITVETADTAIYYCVQSAWDWFAYWGQGTLVTVSA VL: DIVMTQSQKFMSTSVGDRVSVTCKASQNVGTNVAWYQQKSGQSPKALIYSASYRNSGVPDRFTGSGSGTDFTLTISNVESEDLAEYFCQQYNSHPVTFGGGTKLEIK	10.01
A3 (murine anti-34G9) (antibody, V domains shown, Purified murine hybridoma antibody) VH: QVQLKESGPGILQPSQTLSLTCSFSGFSLNTAGMTVGWIRQPSGKGLEWLAHIWWNDDKYYNPALKSRLTISKDTSNNQIFLEIASVVTADTATYYCTRIATMNYAMDYWGQGTSVTVSS VL: DIVMTQAPASLAVSLGQRATISCRASQSVSTSSFSYMHWYQQKPGQPPKLLIKYASNLESGVPARFSGSGSGTDFTLNIHPVEEEDTATYYCQHSWEIPYTFGGGTKLEIK	10.05

The measured values listed here are drawn from patent US20250092124A1.
